The values you see were collected from patent US4590189A.

- system: benzodiazepine receptor
- assay remarks: Specific benzodiazepine receptor binding: displacement of [^3 H] diazepam in crude mitochondrial fractions of rat cerebral cortex
- test settings: [^3 H] diazepam 2 nM, pH 7.4, 4° C., 20 minutes; read-out: IC50, effect on specific binding of [^3 H] diazepam
- Procedure: The pharmacological properties of the compounds (I) of this invention were investigated by determining the substituting power thereof for radioactive diazepam from a benzodiazepine receptor. Specific benzodiazepine receptor binding was carried out according to the method of C. […] Then, the suspension was filtered through a Whatman GF/B glass fiber filter and the radioactivity of [^3 H] diazepam on the filter was measured by the liquid scintillation method. […]
Consider the following compounds; for each one, report its IC50.
Answers are plain numbers, in nM.

Report IC50 for every entry below.
1. O=C(CC1C2=C(SCCS2)C(=O)N1c1ccc(Cl)cc1)N1CCCCC1 (stereo not drawn)
2. CN(Cc1ccccc1)C(=O)CC1c2ccccc2C(=O)N1c1ccccc1 (stereo not drawn)
3. O=C(CC1c2ccccc2C(=O)N1c1ccc(Cl)cc1)N1CCCCC1 (stereo not drawn)
4. COc1ccc(N2C(=O)C3=C(SCCS3)C2CC(=O)N2CCCCC2)cc1 (stereo not drawn)
5. COc1ccc(N2C(=O)c3ccc(Cl)cc3C2CC(=O)N2CCN(C)CC2)cc1 (stereo not drawn)
6. O=C(CC1C2=C(SCCS2)C(=O)N1c1ccc(Cl)cc1)N1CCCCCC1 (stereo not drawn)

[9.55, 19.5, 8.86, 1.05, 1.99, 5.75]
